Just for reference, ChEMBL document CHEMBL2062484 is where these values come from.

test system: HT-1080; test: Induction of apoptosis in human HT1080 cells assessed as increase in necrotic cell population at 10 uM after 24 hrs by Annexin V FITC staining based flow cytometry; details: ht-1080, 24 h
Experimental readout: Activity

Examples from the recorded data:
Compound	Activity
O=C1NC(=O)C(c2ccc(Oc3ccccc3)cc2)(N2CCCC(CO[N+](=O)[O-])C2)C(=O)N1 (stereo unspecified)	Non-toxic
CN(CCO[N+](=O)[O-])C1(c2ccc(Oc3ccccc3)cc2)C(=O)NC(=O)NC1=O	Non-toxic
O=C1NC(=O)C(c2ccc(Oc3ccccc3)cc2)(N2CCN(CCO[N+](=O)[O-])CC2)C(=O)N1	Non-toxic
O=C1NC(=O)C(c2ccc(Oc3ccccc3)cc2)(N2CCC(CCO[N+](=O)[O-])CC2)C(=O)N1	Non-toxic
O=C1NC(=O)C(c2ccc(Oc3ccccc3)cc2)(N(CCO[N+](=O)[O-])CCO[N+](=O)[O-])C(=O)N1	Non-toxic

Now examine the next entry.
Fill in the recorded Activity for this compound, with HT-1080 as test system: `O=C1NC(=O)C(c2ccc(Oc3ccccc3)cc2)(N2CCC(CO[N+](=O)[O-])CC2)C(=O)N1` Non-toxic
